B1: PTPRD (parent)
chain: ITWFKDFLPVDTSNNNGRIKQLRS

Variants of: B1
Experiment: protein stability index of a GFP-peptide fusion (GPS, HEK-293T) (PSI 1-6); higher = more stable;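 further: lentivirally expressed fusions sorted by FACS into six bins by GFP to DsRed ratio, PSI derived from sequencing read proportions per bin multiplied by bin number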
Conditions: c terminus: a fixed tail appended
// reported protein stability index for each item listed
Give a plain numeric answer without units written out.

// solved cases for protein stability index follow
INSERT INTO results (variantnotation, observed) VALUES
  ('L8A', 2.14),
  ('F4Y', 1.95);

Turning now to a further variant:
// protein stability index value for D11S : 2.06

meta.source: the supplement of paper PMC10567573
